# credit: ChEMBL document CHEMBL1142704

ASSAYED SYSTEM: Tyrosine-protein phosphatase non-receptor type 6 (Homo sapiens, UniProt P29350)
Sequence (P29350 whole entry): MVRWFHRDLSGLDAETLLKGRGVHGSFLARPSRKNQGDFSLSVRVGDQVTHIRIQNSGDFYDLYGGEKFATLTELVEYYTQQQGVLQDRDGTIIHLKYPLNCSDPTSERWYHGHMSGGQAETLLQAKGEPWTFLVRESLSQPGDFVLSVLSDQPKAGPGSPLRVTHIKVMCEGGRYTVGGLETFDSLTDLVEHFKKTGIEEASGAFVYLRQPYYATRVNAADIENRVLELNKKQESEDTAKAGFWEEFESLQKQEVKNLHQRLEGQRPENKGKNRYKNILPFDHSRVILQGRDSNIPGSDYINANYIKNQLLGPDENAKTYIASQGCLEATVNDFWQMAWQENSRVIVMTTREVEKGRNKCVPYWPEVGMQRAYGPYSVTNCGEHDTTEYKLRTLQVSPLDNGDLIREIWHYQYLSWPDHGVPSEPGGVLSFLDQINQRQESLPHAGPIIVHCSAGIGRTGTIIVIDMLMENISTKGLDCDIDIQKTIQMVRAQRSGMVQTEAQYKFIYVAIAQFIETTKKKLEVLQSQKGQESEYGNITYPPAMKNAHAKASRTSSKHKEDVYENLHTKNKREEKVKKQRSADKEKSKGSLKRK
EXPERIMENTAL DETAILS: Concentration required to stimulate SHP-1 enzymatic activity by 50%
RUN PARAMETERS: read-out: EC50
pEC50: −log10 of the molar value. *1 amine or outer side, *2 acyl side, *3 side chain or, on linkers, in order; H or OH if unused. Where a SMILES comes first, the peptide text is derived from it. [ ]: non-standard residue; d: D form. X4 = O=C([C@@H](N[*:1])C(O)c1ccccc1)[*:2]; pY = N[C@@H](Cc1ccc(OP(=O)(O)O)cc1)C(=O)O; Nle = CCCC[C@H](N)C(=O)O
Below, each entry is listed with its recorded pEC50.
READOUT LABEL: pEC50

* CC(C)C[C@H](NC(=O)[C@@H](NC(=O)[C@@H](NC(=O)[C@H](Cc1ccc(OP(=O)(O)O)cc1)NC(=O)[C@H](CC(N)=O)NC(=O)[C@H](CC(C)C)NC(=O)CNC(=O)[C@@H](N)CCC(=O)O)C(C)c1ccccc1)C(C)C)C(N)=O (stereo in doubt; 5b) | 3.66
* CCCC[C@H](NC(=O)[C@H](Cc1ccc(OP(=O)(O)O)cc1)NC(=O)[C@H](CC(N)=O)NC(=O)[C@H](CC(C)C)NC(=O)CNC(=O)[C@@H](N)CCC(=O)O)C(=O)N[C@H](C(=O)N[C@@H](Cc1ccccc1)C(N)=O)C(C)C (H-EGLN[pY][Nle]VF-NH2) | 4.22
* CSCC[C@H](NC(=O)[C@H](Cc1ccc(OP(=O)(O)O)cc1)NC(=O)[C@H](CC(N)=O)NC(=O)[C@H](CC(C)C)NC(=O)CNC(=O)[C@@H](N)CCC(=O)O)C(=O)N[C@H](C(=O)N[C@H](C(N)=O)C(O)c1ccccc1)C(C)C (stereo not given in full) (H-EGLN[pY]MV[X4]-NH2) | 4.07
* CC(C)C[C@H](NC(=O)[C@@H](NC(=O)[C@@H](NC(=O)[C@H](Cc1ccc(OP(=O)(O)O)cc1)NC(=O)[C@H](CC(N)=O)NC(=O)[C@H](CC(C)C)NC(=O)CNC(=O)[C@@H](N)CCC(=O)O)C(C)c1ccccc1)C(C)C)C(N)=O (stereo in doubt; 5a) | 4.30
* CC(C)C[C@H](NC(=O)[C@@H](NC(=O)[C@H](Cc1ccccc1)NC(=O)[C@H](Cc1ccc(OP(=O)(O)O)cc1)NC(=O)[C@H](CC(N)=O)NC(=O)[C@H](CC(C)C)NC(=O)CNC(=O)[C@@H](N)CCC(=O)O)C(C)C)C(N)=O (H-EGLN[pY]FVL-NH2) | 4.15
